These measurements were taken from patent US11034725B2.

The entries below are paired with their reported pIC50.
molecular target: PCSK9 (Homo sapiens); test: PCSK9/EGF(A) TR-FRET binding assay; details: TR-FRET; Table 8E, additional compounds; read-out: PCSK9/EGF(A) IC50
pIC50: −log10 of the molar value. Peptide text beside a SMILES is read from it. * marks the point of attachment. Desaminohistidyl = O=C(CCc1c[nH]cn1)*; Propanoyl(3-cHex) = O=C(CCC1CCCCC1)*

[
  {
    "Compound": "CC[C@H](C)[C@H](NC(=O)[C@H](CCCNC(=N)N)NC(=O)[C@@H](NC(=O)[C@H](CC(C)C)NC(=O)[C@H](CC(N)=O)NC(=O)[C@H](Cc1c[nH]c2ccccc12)NC(=O)CCc1c[nH]cn1)C(C)C)C(=O)NCC(=O)N[C@@H](CC(C)C)C(=O)N[C@@H](CC(C)C)C(=O)N[C@@H](CCCNC(=N)N)C(N)=O [Compound 132] (Desaminohistidyl-WNLVRIGLLR-NH2)",
    "Limit sign": "≤",
    "pIC50": 4.30
  },
  {
    "Compound": "CC[C@H](C)[C@H](NC(=O)[C@H](CCCNC(=N)N)NC(=O)[C@@H](NC(=O)[C@H](CC(C)C)NC(=O)[C@H](CC(N)=O)NC(=O)[C@H](Cc1c[nH]c2ccccc12)NC(=O)CCC1CCCCC1)C(C)C)C(=O)NCC(=O)N[C@@H](CC(C)C)C(=O)N[C@@H](CC(C)C)C(=O)N[C@@H](CCCNC(=N)N)C(N)=O [Compound 151] ({Propanoyl(3-cHex)}-WNLVRIGLLR-NH2)",
    "Limit sign": "=",
    "pIC50": 5.16
  }
]

###

target: PCSK9 (Homo sapiens, UniProt Q8NBP7); assay: PCSK9/EGF(A) TR-FRET binding assay; conditions: TR-FRET; Table 8D, disulfide-cyclized extension peptides; read-out: PCSK9/EGF(A) IC50
Sequence (Q8NBP7 153-692, one chain of several): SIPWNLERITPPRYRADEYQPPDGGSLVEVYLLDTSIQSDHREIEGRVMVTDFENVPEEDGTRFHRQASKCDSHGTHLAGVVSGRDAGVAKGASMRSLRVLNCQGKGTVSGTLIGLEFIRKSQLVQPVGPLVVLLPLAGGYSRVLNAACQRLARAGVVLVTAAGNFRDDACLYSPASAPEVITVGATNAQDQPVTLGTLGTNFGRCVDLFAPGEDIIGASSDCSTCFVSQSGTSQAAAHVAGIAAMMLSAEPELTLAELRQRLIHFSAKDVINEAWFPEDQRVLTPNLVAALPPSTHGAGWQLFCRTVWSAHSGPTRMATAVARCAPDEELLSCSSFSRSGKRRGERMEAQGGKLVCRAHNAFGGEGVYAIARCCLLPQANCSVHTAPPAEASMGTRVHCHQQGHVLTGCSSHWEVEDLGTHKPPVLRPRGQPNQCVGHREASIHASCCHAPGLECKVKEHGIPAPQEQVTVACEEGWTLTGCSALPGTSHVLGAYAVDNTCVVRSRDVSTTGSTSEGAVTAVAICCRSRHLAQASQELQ
pIC50: −log10 of the molar value. Bridge positions count the residues as written; N and C are the ends. Square brackets hold non-standard residues; d marks the D form. Peptide text beside a SMILES is read from it.
The entries below are paired with their reported pIC50.
Recorded metric: pIC50

[
  {
    "Molecule": "CC[C@H](C)[C@@H]1NC(=O)[C@H](CCCNC(=N)N)NC(=O)[C@H](CCC(N)=O)NC(=O)[C@H](CC(C)C)NC(=O)[C@H](CC(N)=O)NC(=O)[C@H](Cc2c[nH]c3ccccc23)NC(=O)[C@H]2CCCN2C(=O)[C@H](CC(C)C)NC(=O)[C@H](CCCNC(=N)N)NC(=O)[C@@H](NC(C)=O)CSSC[C@@H](C(N)=O)NC(=O)[C@@H]2CCCN2C(=O)[C@H](CC(C)C)NC(=O)CNC1=O [Compound 107] (Ac-CRL[dP]WNLQRIGLPC-NH2; disulfide 1-14)",
    "Result": "< 4.30"
  },
  {
    "Molecule": "CC[C@H](C)[C@@H]1NC(=O)[C@H](C)NC(=O)[C@H](CCC(N)=O)NC(=O)[C@H](CC(C)C)NC(=O)[C@H](CC(N)=O)NC(=O)[C@H](Cc2c[nH]c3ccccc23)NC(=O)[C@@H]2CCCN2C(=O)[C@H](CC(C)C)NC(=O)[C@H](CCCNC(=N)N)NC(=O)[C@@H](NC(C)=O)CSSC[C@@H](C(N)=O)NC(=O)[C@@H]2CCCN2C(=O)[C@H](CC(C)C)NC(=O)CNC1=O [Compound 72] (Ac-CRLPWNLQAIGLPC-NH2; disulfide 1-14)",
    "Result": "< 4.30"
  }
]

###

target: PCSK9Δhelix (Homo sapiens, UniProt Q8NBP7); construct: Human PCSK9 construct M1-Q692 with an engineered TEV site (residue deletion Y166, R167); made in house; host or cells: CHO; assay: PCSK9Δhelix/Ab20 TR-FRET binding assay; details: TR-FRET; Table 8E, additional compounds; read-out: PCSK9Δhelix/Ab20 IC50
Sequence (Q8NBP7 with tags, fused parts or gaps limits assumed): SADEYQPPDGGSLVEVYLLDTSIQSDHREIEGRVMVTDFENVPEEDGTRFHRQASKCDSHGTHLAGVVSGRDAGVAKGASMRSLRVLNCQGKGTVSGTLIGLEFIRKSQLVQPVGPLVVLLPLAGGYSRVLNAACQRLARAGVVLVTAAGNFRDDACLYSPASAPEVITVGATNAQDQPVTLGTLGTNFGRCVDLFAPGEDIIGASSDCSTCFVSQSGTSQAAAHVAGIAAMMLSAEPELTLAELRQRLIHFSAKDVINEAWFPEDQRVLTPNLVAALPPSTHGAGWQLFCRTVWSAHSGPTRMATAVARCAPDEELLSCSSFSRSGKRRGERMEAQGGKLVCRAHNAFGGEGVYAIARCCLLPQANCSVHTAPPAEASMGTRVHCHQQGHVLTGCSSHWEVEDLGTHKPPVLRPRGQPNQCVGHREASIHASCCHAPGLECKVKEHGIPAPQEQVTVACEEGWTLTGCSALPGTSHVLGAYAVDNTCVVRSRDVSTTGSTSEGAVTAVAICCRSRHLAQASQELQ
Sequence (Q8NBP7 31-152 partner limits assumed): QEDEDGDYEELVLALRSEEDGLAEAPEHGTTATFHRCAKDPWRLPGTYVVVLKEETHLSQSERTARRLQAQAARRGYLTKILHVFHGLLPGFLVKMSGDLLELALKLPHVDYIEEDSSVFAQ
Square brackets hold non-standard residues; d marks the D form. Peptide text beside a SMILES is read from it. * marks the point of attachment. hArg = N=C(N)NCCCC[C@H](N)C(=O)O; X25 = COc1cc(CCC(=O)*)ccc1O; X33 = CN1CCN(CCC(=O)*)CC1
The entries below are paired with their reported IC50.
Recorded metric: IC50 (µM)

[
  {
    "Compound": "CC[C@H](C)[C@H](NC(=O)[C@H](CCCNC(=N)N)NC(=O)[C@@H](NC(=O)[C@H](CC(C)C)NC(=O)[C@H](CC(N)=O)NC(=O)[C@H](Cc1c[nH]c2ccccc12)NC(=O)CCN1CCN(C)CC1)C(C)C)C(=O)NCC(=O)N[C@@H](CC(C)C)C(=O)N[C@@H](CC(C)C)C(=O)N[C@@H](CCCNC(=N)N)C(N)=O [Compound 140] (X33-WNLVRIGLLR-NH2)",
    "Result": 26
  },
  {
    "Compound": "CC[C@H](C)[C@H](NC(=O)[C@H](CCCCNC(=N)N)NC(=O)[C@@H](NC(=O)[C@H](CC(C)C)NC(=O)[C@H](CC(N)=O)NC(=O)[C@H](Cc1c[nH]c2ccccc12)NC(=O)CCc1ccc(O)c(OC)c1)C(C)C)C(=O)NCC(=O)N[C@@H](CC(N)=O)C(=O)N[C@@H](CCCNC(=N)N)C(N)=O [Compound 240] (X25-WNLV[hArg]IGNR-NH2)",
    "Result": 0.92
  }
]

###

target: PCSK9Δhelix (Homo sapiens, UniProt Q8NBP7); construct: Human PCSK9 construct M1-Q692 with an engineered TEV site (residue deletion Y166, R167); made in house; host or cells: CHO; test: Surface plasmon resonance biosensor-based affinity analysis (Example 4); assay type: binding; settings: Table 7, Target PCSK9Δhelix, SPR at 20° C.; read-out: Kd
pKd: −log10 of the molar value. Bridge positions count the residues as written; N and C are the ends. Peptide text beside a SMILES is read from it.

[
  {
    "Compound": "CC[C@H](C)[C@@H]1NC(=O)[C@H](CCCNC(=N)N)NC(=O)[C@H](CCC(N)=O)NC(=O)[C@H](CC(C)C)NC(=O)[C@H](CC(N)=O)NC(=O)[C@H](Cc2c[nH]c3ccccc23)NC(=O)[C@@H]2CCCN2C(=O)[C@H]([C@@H](C)CC)NC(=O)[C@H](Cc2ccccc2)NC(=O)[C@@H](NC(=O)CNC(=O)[C@@H](N)CO)CSSC[C@@H](C(N)=O)NC(=O)[C@H](CC(C)C)NC(=O)[C@H](CC(C)C)NC(=O)CNC1=O [Compound 26] (H-SGCFIPWNLQRIGLLC-NH2; disulfide 3-16)",
    "pKd": 6.10
  }
]

###

The entries below are paired with their reported IC50.
molecular target: PCSK9Δhelix (Homo sapiens, UniProt Q8NBP7); construct: Human PCSK9 construct M1-Q692 with an engineered TEV site (residue deletion Y166, R167); made in house; host or cells: CHO; test: PCSK9Δhelix/Ab20 TR-FRET binding assay; conditions: TR-FRET; Table 8D, disulfide-cyclized extension peptides; read-out: PCSK9Δhelix/Ab20 IC50
Bridge positions count the residues as written; N and C are the ends. Square brackets hold non-standard residues; d marks the D form. Peptide text beside a SMILES is read from it. Aoc = NCCCCCCCC(=O)O
Recorded metric: IC50 (nM)

[
  {
    "Compound": "CC[C@H](C)[C@@H]1NC(=O)[C@H](CCCNC(=N)N)NC(=O)[C@H](CCC(N)=O)NC(=O)[C@H](CC(C)C)NC(=O)[C@H](CC(N)=O)NC(=O)[C@H](Cc2c[nH]c3ccccc23)NC(=O)[C@@H]2CCCN2C(=O)[C@H](CC(C)C)NC(=O)[C@H](CCCNC(=N)N)NC(=O)[C@@H](NC(=O)CNC(=O)[C@H](CO)NC(C)=O)CSSC[C@@H](C(N)=O)NC(=O)[C@@H]2CCCN2C(=O)[C@H](CC(C)C)NC(=O)CNC1=O [Compound 30] (Ac-SGCRLPWNLQRIGLPC-NH2; disulfide 3-16)",
    "Limit sign": "=",
    "Result": 950
  },
  {
    "Compound": "CC[C@H](C)[C@@H]1NC(=O)[C@H](CCCNC(=N)N)NC(=O)[C@H](CCC(N)=O)NC(=O)[C@H](CC(C)C)NC(=O)[C@H](CC(N)=O)NC(=O)[C@H](Cc2c[nH]c3ccccc23)NC(=O)[C@@H]2CCCN2C(=O)[C@H](CC(C)C)NC(=O)[C@H](CCCNC(=N)N)NC(=O)[C@@H](NC(C)=O)CSSC[C@@H](C(N)=O)NC(=O)[C@@H]2CCCN2C(=O)[C@H](CC(C)C)NC(=O)CNC1=O [Compound 32] (Ac-CRLPWNLQRIGLPC-NH2; disulfide 1-14)",
    "Limit sign": "=",
    "Result": 970
  },
  {
    "Compound": "CC(=O)N[C@H]1CSSC[C@@H](C(N)=O)NC(=O)CCCCCCCNC(=O)[C@H](CCCNC(=N)N)NC(=O)[C@H](CCC(N)=O)NC(=O)[C@H](CC(C)C)NC(=O)[C@H](CC(N)=O)NC(=O)[C@H](Cc2c[nH]c3ccccc23)NC(=O)[C@@H]2CCCN2C(=O)[C@H](CC(C)C)NC(=O)[C@H](CCCNC(=N)N)NC1=O [Compound 86] (Ac-CRLPWNLQR[Aoc]C-NH2; disulfide 1-11)",
    "Limit sign": ">",
    "Result": 50000
  }
]
